TARGET_OR_SYSTEM: Translocator protein (Mus musculus)
EXPERIMENTAL_PROTOCOL: Inhibition of TSPO in mouse HT22 cells assessed as inhibition of amyloid beta (1 to 42)-induced ROS generation at 5 uM after 6 hrs by DCFDA staining based fluorescence assay relative to control
Assay type: cell-based
STATED_CONDITIONS: HT-22
Range-based classes on measured inhibition: zone 1: < 10%; zone 2: ≥ 10% and < 30%; zone 3: ≥ 30%

Reference set, count: 2
CN(C)CCCNC(=O)c1ccc(Cn2c(Cc3c(Cl)cccc3Cl)nc3ccccc32)cc1 :: zone 1
Cc1ccc(C(C)C)cc1NC(=O)Cn1c(Cc2c(Cl)cccc2Cl)nc2ccccc21 :: zone 3

(Q) Where would CCN1CCCC1CNC(=O)c1ccc(Cn2c(Cc3c(Cl)cccc3Cl)nc3ccccc32)cc1 (stereo not given) land among the classes by reported inhibition?
(A) zone 2

(Q) Into which category would you place "Cc1cccc(C(C)(C)C)c1NC(=O)Cn1c(-c2ccccc2)nc2ccccc21" ?
(A) zone 1

(Q) Field: class (inhibition) — entry: "O=C(NCCCN1CCCC1)c1ccc(Cn2c(Cc3c(Cl)cccc3Cl)nc3ccccc32)cc1"
(A) zone 2

(Q) Which bin should I file "Cc1ccc(C(C)C)cc1NC(=O)Cn1c(-c2cc(Cl)ccc2Cl)nc2ccc(Cl)cc21" under?
(A) zone 3

(Q) Sort "COc1ccc(OC)c(Cc2nc3ccccc3n2CC(=O)Nc2cc(Cl)cc(Cl)c2)c1" into one of the categories.
(A) zone 1

(Q) Tag the class for "NC(=O)CN1CCCC1=O"
(A) zone 3

(Q) Which class holds "O=C(NCCCN1CCCCC1)c1ccc(Cn2c(Cc3c(Cl)cccc3Cl)nc3ccccc32)cc1" ?
(A) zone 2

====

TARGET_OR_SYSTEM: CYP2D6 (Homo sapiens)
Sequence (P10635 whole entry): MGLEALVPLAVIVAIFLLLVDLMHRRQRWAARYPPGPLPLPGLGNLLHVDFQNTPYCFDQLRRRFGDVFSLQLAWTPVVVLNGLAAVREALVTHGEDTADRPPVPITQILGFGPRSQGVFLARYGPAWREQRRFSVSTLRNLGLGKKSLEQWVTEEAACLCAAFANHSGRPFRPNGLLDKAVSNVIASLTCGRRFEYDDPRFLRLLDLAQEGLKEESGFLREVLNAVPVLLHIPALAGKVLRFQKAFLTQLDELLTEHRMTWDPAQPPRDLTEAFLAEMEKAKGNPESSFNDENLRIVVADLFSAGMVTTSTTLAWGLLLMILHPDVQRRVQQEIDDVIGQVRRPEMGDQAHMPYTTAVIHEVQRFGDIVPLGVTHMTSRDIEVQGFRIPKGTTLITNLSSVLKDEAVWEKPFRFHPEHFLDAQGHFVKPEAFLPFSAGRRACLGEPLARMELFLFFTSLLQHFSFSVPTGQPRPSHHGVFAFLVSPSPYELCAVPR
EXPERIMENTAL_PROTOCOL: Inhibition of recombinant human CYP2D6 expressed in baculosomes coexpressing rabbit NADPH-P450 reudctase assessed as residual activity at 10 uM preincubated for 5 mins followed by substrate and NADP+ addition measured after 20 mins by fluorescence assay relative to control
Format: ADME
STATED_CONDITIONS: read-out: Activity
Provide the reported activity at 20 min, 10 µM of each item.
Give bare numbers, in %.

Worked examples follow.
Cc1ccc(C(C)C)cc1NC(=O)Cn1c(Cc2c(Cl)cccc2Cl)nc2ccccc21 :: 140
O=C(NCCCN1CCCCC1)c1ccc(Cn2c(Cc3c(Cl)cccc3Cl)nc3ccccc32)cc1 :: 25.5
CCN1CCCC1CNC(=O)c1ccc(Cn2c(Cc3c(Cl)cccc3Cl)nc3ccccc32)cc1 (stereo unspecified) :: 82.4
COc1ccc(OC)c(Cc2nc3ccccc3n2CC(=O)Nc2cc(C(C)(C)C)cc(C(C)(C)C)c2)c1 :: 56.3
Cc1ccc(C(C)C)cc1NC(=O)Cn1c(-c2cc(Cl)ccc2Cl)nc2ccc(Cl)cc21 :: 82.2

(Q) Item "CN(C)CCCNC(=O)c1ccc(Cn2c(Cc3c(Cl)cccc3Cl)nc3ccccc32)cc1" has what recorded activity at 20 min, 10 µM?
(A) 120

====

Form: system (Translocator protein (Homo sapiens, UniProt P30536)), quantity (IC50), values below.
One number for each entry, in nM.

CC(=O)N(Cc1ccccc1OC(C)C)c1ccc(Cl)cc1Oc1ccccc1 :: 0.92

Next item in the queue.
(Q) Which IC50 value is on record for "COc1ccc(OC)c(CN(C(C)=O)c2ccc(F)cc2Oc2ccccc2)c1" ?
(A) 1.6
